Molecular target: NEP (Rattus norvegicus, UniProt P07861)
Sequence (P07861 1-750): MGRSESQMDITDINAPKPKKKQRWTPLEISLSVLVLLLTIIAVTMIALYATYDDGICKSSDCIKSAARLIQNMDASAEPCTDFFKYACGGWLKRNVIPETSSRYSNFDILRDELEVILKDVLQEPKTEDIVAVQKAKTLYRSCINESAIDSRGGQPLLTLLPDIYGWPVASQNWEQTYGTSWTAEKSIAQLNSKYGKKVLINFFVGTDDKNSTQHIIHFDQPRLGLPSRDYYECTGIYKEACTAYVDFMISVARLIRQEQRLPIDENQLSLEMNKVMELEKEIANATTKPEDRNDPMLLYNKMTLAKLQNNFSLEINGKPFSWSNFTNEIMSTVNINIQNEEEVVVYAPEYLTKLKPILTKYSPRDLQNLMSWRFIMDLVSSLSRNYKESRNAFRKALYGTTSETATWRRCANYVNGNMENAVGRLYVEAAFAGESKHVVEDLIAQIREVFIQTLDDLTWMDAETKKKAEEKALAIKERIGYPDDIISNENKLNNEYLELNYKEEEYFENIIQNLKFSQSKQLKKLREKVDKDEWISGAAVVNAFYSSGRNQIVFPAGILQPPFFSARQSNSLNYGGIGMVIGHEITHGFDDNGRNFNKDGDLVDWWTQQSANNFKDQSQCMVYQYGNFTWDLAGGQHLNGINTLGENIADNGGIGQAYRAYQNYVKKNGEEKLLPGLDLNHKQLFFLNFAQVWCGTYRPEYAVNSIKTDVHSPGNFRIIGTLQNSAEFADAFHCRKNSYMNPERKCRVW
pIC50: −log10 of the molar value. Where a name gives a salt, the structure may show the parent alone.
Endpoint Label: pIC50

Illustrative cases are given below, each with its answer.
{"Molecule": "CC(C)CC(CP(=O)(O)CCCCc1ccccc1)C(=O)N[C@@H](Cc1ccc(-c2ccccc2)cc1)C(=O)O (stereo partly shown) [Compound 2, disodium salt]", "pIC50": 6.66}
{"Molecule": "CC(C)CC(CP(=O)(O)CNC(=O)Cc1ccccc1)C(=O)N[C@@H](Cc1ccc(-c2ccccc2)cc1)C(=O)O (stereo partly shown)", "pIC50": 7.52}

a = CC(C)CC(CP(=O)(O)CNC(=O)c1ccccc1)C(=O)N[C@@H](Cc1ccc(-c2ccccc2)cc1)C(=O)O (stereo partly shown)
b = CC(C)CC(CP(=O)(O)CCCc1ccccc1)C(=O)N[C@@H](Cc1ccc(-c2ccccc2)cc1)C(=O)O (stereo partly shown) [Compound 1, dilithium salt]
Prompt: Which is greater in pIC50, the first item a or the second item b ? State your choice using its label.
Response: a
(a: 8.11, b: 6.43)
